# Test system: Fibroblast
# Procedure summary: Multiplex assay against human fibroblast
# Format: toxicity, cell-based
# Test settings: 12 h, 1 µM, compound concentration 1 uM, replicate 2
Metric name: Population Fragmented Nuclei (%)

compound=CN(C)CC#Cc1ccc(OCCCc2sc(N3CCc4cccc(C(=O)Nc5nc6ccccc6s5)c4C3)nc2C(=O)O)c(F)c1 result_unit=% recorded_value=39
compound=C=CC(=O)Nc1cccc(C(=O)Nc2ccc(Nc3cc(-c4[nH]c(SC)nc4C)ccn3)cc2)c1 result_unit=% recorded_value=2
compound=CN1CCN(c2ccc(OC(F)(F)F)c(Nc3ncc4c(n3)-c3c(c(C(N)=O)nn3CCO)CC4)c2)CC1 result_unit=% recorded_value=11
compound="COc1cccc([C@@H](C)NCCCc2ccccc2Cl)c1.Cl [TECALCET HYDROCHLORIDE]" result_unit=% recorded_value=10
